Test system: Morganella morganii EP-14
Assay: Anti-bacterial activity (MIC), agar dilution
Type: cell-based
Conditions: Morganella morganii, EP14, 18 h, about 10^6 CFU/ml, 37° C., read-out: MIC
MEASURED ENDPOINT: MIC

INSERT INTO results (compound, target_or_system, measured_endpoint, meas_value) VALUES
  ('CC(C(N)=O)[N+]1(C/C=C/C2=C(C(=O)[O-])N3C(=O)[C@@H](NC(=O)/C(=N\OCF)c4nsc(N)n4)[C@H]3SC2)CCCC1 (single isomer, unassigned)', 'Morganella morganii EP-14', 'MIC', '≤ 0.025 µg/mL'),
  ('CC[N+](C)(CC#N)C/C=C/C1=C(C(=O)[O-])N2C(=O)[C@@H](NC(=O)/C(=N\OCF)c3nsc(N)n3)[C@H]2SC1 (some centres unmarked)', 'Morganella morganii EP-14', 'MIC', '≤ 0.025 µg/mL'),
  ('C[N+](C)(C/C=C/C1=C(C(=O)[O-])N2C(=O)[C@@H](NC(=O)/C(=N\OCC#N)c3nsc(N)n3)[C@H]2SC1)CC(N)=O', 'Morganella morganii EP-14', 'MIC', '0.1 µg/mL'),
  ('Nc1nc(/C(=N/OCF)C(=O)N[C@@H]2C(=O)N3C(C(=O)[O-])=C(/C=C/C[N+]4(CCO)CCCC4)CS[C@H]23)ns1', 'Morganella morganii EP-14', 'MIC', '≤ 0.025 µg/mL'),
  ('C[N+]1(C/C=C/C2=C(C(=O)[O-])N3C(=O)[C@@H](NC(=O)/C(=N\OCF)c4nsc(N)n4)[C@H]3SC2)C[C@H](O)C[C@H]1CO (some centres unmarked)', 'Morganella morganii EP-14', 'MIC', '≤ 0.025 µg/mL'),
  ('CN(C)CCC[N+](C)(C)C/C=C/C1=C(C(=O)[O-])N2C(=O)[C@@H](NC(=O)/C(=N\OCF)c3nsc(N)n3)[C@H]2SC1', 'Morganella morganii EP-14', 'MIC', '0.4 µg/mL'),
  ('NC(=O)c1cc[n+](C/C=C/C2=C(C(=O)[O-])N3C(=O)[C@@H](NC(=O)/C(=N\OCF)c4nsc(N)n4)[C@H]3SC2)cc1', 'Morganella morganii EP-14', 'MIC', '≤ 0.025 µg/mL'),
  ('C[N+](C)(C/C=C/C1=C(C(=O)[O-])N2C(=O)[C@@H](NC(=O)/C(=N\OCF)c3nsc(N)n3)[C@H]2SC1)CC(=O)NCC(N)=O', 'Morganella morganii EP-14', 'MIC', '0.1 µg/mL');

====

// reported MIC for each item listed
Test system: Morganella morganii EP-14
Assay: Anti-bacterial activity (MIC), agar dilution
Type: cell-based
Settings: Morganella morganii, EP14, 18 h, about 10^6 CFU/ml, 37° C., read-out: MIC
MEASURED ENDPOINT: MIC

INSERT INTO results (compound, target_or_system, measured_endpoint, meas_value) VALUES
  ('C[N+](C)(C/C=C/C1=C(C(=O)[O-])N2C(=O)[C@@H](NC(=O)/C(=N\OCF)c3nsc(N)n3)[C@H]2SC1)CC(=O)N(CCO)CCO', 'Morganella morganii EP-14', 'MIC', '0.1 µg/mL'),
  ('NC(=O)NCC[N+]1(C/C=C/C2=C(C(=O)[O-])N3C(=O)[C@@H](NC(=O)/C(=N\OCF)c4nsc(N)n4)[C@H]3SC2)CCOCC1', 'Morganella morganii EP-14', 'MIC', '0.05 µg/mL'),
  ('C[C@H](C(N)=O)[N+](C)(C)C/C=C/C1=C(C(=O)[O-])N2C(=O)[C@@H](NC(=O)/C(=N\OCF)c3nsc(N)n3)[C@H]2SC1', 'Morganella morganii EP-14', 'MIC', '≤ 0.025 µg/mL'),
  ('CN(C)CCn1nnnc1SCC1=C(C(=O)O)N2C(=O)[C@@H](NC(=O)Cc3csc(N)n3)[C@H]2SC1 [CTM, Cefotiam, reference compound]', 'Morganella morganii EP-14', 'MIC', '0.2 µg/mL'),
  ('NC(=O)N1CC[N+](C/C=C/C2=C(C(=O)[O-])N3C(=O)[C@@H](NC(=O)/C(=N\OCF)c4nsc(N)n4)[C@H]3SC2)(CCO)CC1', 'Morganella morganii EP-14', 'MIC', '0.05 µg/mL'),
  ('C[N+]1(C/C=C/C2=C(C(=O)[O-])N3C(=O)[C@@H](NC(=O)/C(=N\OCF)c4nsc(N)n4)[C@H]3SC2)CCNCC1', 'Morganella morganii EP-14', 'MIC', '0.05 µg/mL'),
  ('CNC(=O)C[N+](C)(C)C/C=C/C1=C(C(=O)[O-])N2C(=O)[C@@H](NC(=O)/C(=N\OCF)c3nsc(N)n3)[C@H]2SC1', 'Morganella morganii EP-14', 'MIC', '≤ 0.025 µg/mL');

====

Test system: Kleb. pneumoniae EK-6
Assay: Anti-bacterial activity (MIC), agar dilution
Assay type: cell-based
Settings: Klebsiella pneumoniae, EK6, 18 h, Kleb. pneumoniae EK-6; agar dilution, about 10^6 CFU/ml, 18 hours, 37° C.; read-out: MIC
// reported MIC for each item listed
MEASURED ENDPOINT: MIC

INSERT INTO results (molecule, meas_value) VALUES
  ('Nc1nc(/C(=N/OCF)C(=O)N[C@@H]2C(=O)N3C(C(=O)[O-])=C(/C=C/C[N+]4(CCO)C[C@H](O)C[C@H]4CO)CS[C@H]23)ns1 (single isomer, unassigned) [Example 7-1]', '≤ 0.025 µg/mL'),
  ('C[N+](C)(C/C=C/C1=C(C(=O)[O-])N2C(=O)[C@@H](NC(=O)/C(=N\OC(F)F)c3nsc(N)n3)[C@H]2SC1)CC(N)=O [Example 114]', '≤ 0.025 µg/mL'),
  ('C[N+](C)(C/C=C/C1=C(C(=O)[O-])N2C(=O)[C@@H](NC(=O)/C(=N\OCF)c3nsc(N)n3)[C@H]2SC1)CC(=O)NCO [Example 92]', '≤ 0.025 µg/mL'),
  ('NC(=O)N1CCC[N+](C/C=C/C2=C(C(=O)[O-])N3C(=O)[C@@H](NC(=O)/C(=N\OCF)c4nsc(N)n4)[C@H]3SC2)(CCO)CC1 (stereo partly shown) [Example 101]', '≤ 0.025 µg/mL'),
  ('C[N+](C)(C/C=C/C1=C(C(=O)[O-])N2C(=O)[C@@H](NC(=O)/C(=N\OCF)c3nsc(N)n3)[C@H]2SC1)CC(=O)NCC(N)=O [Example 73]', '0.05 µg/mL'),
  ('C[N+](C)(C/C=C/C1=C(C(=O)[O-])N2C(=O)[C@@H](NC(=O)/C(=N\OCF)c3nsc(N)n3)[C@H]2SC1)C(CO)CO [Example 95]', '≤ 0.025 µg/mL'),
  ('C[N+](C)(C/C=C/C1=C(C(=O)[O-])N2C(=O)[C@@H](NC(=O)/C(=N\OCF)c3nsc(N)n3)[C@H]2SC1)[C@H](CO)C(=O)NCO [Example 63]', '0.05 µg/mL');

====

System: Ser. marcescens ES-75
Experiment: Anti-bacterial activity (MIC), agar dilution
Type: cell-based
Settings: Serratia marcescens, ES75, 18 h, Ser. marcescens ES-75; agar dilution, about 10^6 CFU/ml, 18 hours, 37° C.; read-out: MIC
// reported MIC for each item listed
MEASURED ENDPOINT: MIC

INSERT INTO measurements (compound, measured_endpoint, meas_value) VALUES
  ('C[N+]1(C/C=C/C2=C(C(=O)[O-])N3C(=O)[C@@H](NC(=O)/C(=N\OCF)c4nsc(N)n4)[C@H]3SC2)C[C@H](O)C[C@H]1CO (stereo partly shown)', 'MIC', '≤ 0.025 µg/mL'),
  ('Nc1ccc[n+](C/C=C/C2=C(C(=O)[O-])N3C(=O)[C@@H](NC(=O)/C(=N\OCF)c4nsc(N)n4)[C@H]3SC2)c1', 'MIC', '≤ 0.025 µg/mL'),
  ('Nc1nc(/C(=N/OCF)C(=O)N[C@@H]2C(=O)N3C(C(=O)[O-])=C(/C=C/C[n+]4ccc(C(=O)O)cc4)CS[C@H]23)ns1', 'MIC', '≤ 0.025 µg/mL'),
  ('Nc1nc(/C(=N/OC(F)F)C(=O)N[C@@H]2C(=O)N3C(C(=O)[O-])=C(/C=C/C[N+]45CCN(CC4)CC5)CS[C@H]23)ns1', 'MIC', '≤ 0.025 µg/mL'),
  ('C[N+](C)(C/C=C/C1=C(C(=O)[O-])N2C(=O)[C@@H](NC(=O)/C(=N\OCF)c3nsc(N)n3)[C@H]2SC1)CC(O)CO (stereo partly shown)', 'MIC', '≤ 0.025 µg/mL'),
  ('CC(O)C[N+](C)(C)C/C=C/C1=C(C(=O)[O-])N2C(=O)[C@@H](NC(=O)/C(=N\OCF)c3nsc(N)n3)[C@H]2SC1 (stereo partly shown)', 'MIC', '0.1 µg/mL'),
  ('C[C@H](C(N)=O)[N+](C)(C)C/C=C/C1=C(C(=O)[O-])N2C(=O)[C@@H](NC(=O)/C(=N\OCF)c3nsc(N)n3)[C@H]2SC1', 'MIC', '0.1 µg/mL'),
  ('NC(=O)N1CCC[N+](C/C=C/C2=C(C(=O)[O-])N3C(=O)[C@@H](NC(=O)/C(=N\OCF)c4nsc(N)n4)[C@H]3SC2)(CCO)CC1 (stereo partly shown)', 'MIC', '≤ 0.025 µg/mL'),
  ('C[N+]1(C/C=C/C2=C(C(=O)[O-])N3C(=O)[C@@H](NC(=O)/C(=N\OCF)c4nsc(N)n4)[C@H]3SC2)CCN(C=O)CC1', 'MIC', '≤ 0.025 µg/mL'),
  ('COCC[N+](C)(C)C/C=C/C1=C(C(=O)[O-])N2C(=O)[C@@H](NC(=O)/C(=N\OCF)c3nsc(N)n3)[C@H]2SC1', 'MIC', '≤ 0.025 µg/mL'),
  ('CNC(=O)CC[N+](C)(C)C/C=C/C1=C(C(=O)[O-])N2C(=O)[C@@H](NC(=O)/C(=N\OCF)c3nsc(N)n3)[C@H]2SC1', 'MIC', '≤ 0.025 µg/mL'),
  ('NCC[N+]1(C/C=C/C2=C(C(=O)[O-])N3C(=O)[C@@H](NC(=O)/C(=N\OCF)c4nsc(N)n4)[C@H]3SC2)CCCC1', 'MIC', '0.2 µg/mL'),
  ('NC(=O)N1CC[N+](C/C=C/C2=C(C(=O)[O-])N3C(=O)[C@@H](NC(=O)/C(=N\OCF)c4nsc(N)n4)[C@H]3SC2)(CCO)CC1', 'MIC', '0.2 µg/mL'),
  ('C[N+](C)(C/C=C/C1=C(C(=O)[O-])N2C(=O)[C@@H](NC(=O)/C(=N\OCF)c3nsc(N)n3)[C@H]2SC1)[C@@H](CO)C(N)=O', 'MIC', '≤ 0.025 µg/mL'),
  ('C[N@@+]1(C/C=C/C2=C(C(=O)[O-])N3C(=O)[C@@H](NC(=O)/C(=N\OCC#N)c4nsc(N)n4)[C@H]3SC2)C[C@H](O)C[C@@H]1CO', 'MIC', '0.05 µg/mL'),
  ('Nc1nc(/C(=N/OCF)C(=O)N[C@@H]2C(=O)N3C(C(=O)[O-])=C(/C=C/C[N+]4(CCO)CCOCC4)CS[C@H]23)ns1', 'MIC', '0.1 µg/mL');

The measured values listed here are drawn from patent US4921850A.
